Value source: patent US20220177587A1

- test-target: CD28 (Homo sapiens, UniProt P10747)
- assay-notes: Flow binding to Jurkat/IL2 reporter cells (CD28)
- Set-up: host or cells: Jurkat cells expressing an IL-2-luciferase reporter
- condition-parameters: Table E4; 33.3 nM; Jurkat cells (CD28)
Collected CD28 MFI at 33.3 nM values appear next to each entry.
Form: value (number only, do not type unit).

Take a look at these entries with their results.
molecule | CD28 MFI at 33.3 nM
E35D/M47I/L85Q/D90G (protein, UniProt P33681 35-288, looked up, variant E35D M47I L85Q D90G) T-lymphocyte activation …: VIHVTKEVKEVATLSCGHNVSVEELAQTRIYWQKDKKMVLTMMSGDINIWPEYKNRTIFDITNNLSIVILALRPSDEGTYECVVQKYEKGAFKREHLAEVTLSVKADFPTPSISDFEIPTSNIRRIICSTSGGFPEPHLSWLENGEELNAINTTVSQDPETELYAVSSKLDFNMTTNHSFMCLIKYGHLRVNQTFNWNTTKQEHFPDNLLPSWAITLISVNGIFVICCLTYCFAPRCRERRRNERLRRESVRPV | 4095
V22L/Q27H/E35D/M47I/A71G (protein, CD80 v274 ECD) VIHVTKEVKEVATLSCGHNVSLEELAHTRIYWQKDKKMVLTMMSGDINIWPEYKNRTIFDITNNLSIVILGLRPSDEGTYECVVLKYEKDAFKREHLAEVTLSVKADFPTPSISDFETPTSNIRRIICSTSGGFPEPHLSWLENGEELNAINTTVSQDPETELYAVSSKLDFNMTTNHSFMCLIKYGHLRVNQTFNWNTTKQEHFPDN | 7269
E35D/M47V/N48KN68M/K89N (protein) VIHVTKEVKEVATLSCGHNVSVEELAQTRIYWQKDKKMVLTMMSGDVKIWPEYKNRTIFDITNNLSIMILALRPSDEGTYECVVLKYENDAFKREHLAEVTLSVKAD | 11736
E35D/D46E/M47V/N63D/L85Q (protein, UniProt P33681 35-288, looked up, variant E35D D46E M47V N63D L85Q) T-lymphocyte activation …: VIHVTKEVKEVATLSCGHNVSVEELAQTRIYWQKDKKMVLTMMSGEVNIWPEYKNRTIFDITDNLSIVILALRPSDEGTYECVVQKYEKDAFKREHLAEVTLSVKADFPTPSISDFEIPTSNIRRIICSTSGGFPEPHLSWLENGEELNAINTTVSQDPETELYAVSSKLDFNMTTNHSFMCLIKYGHLRVNQTFNWNTTKQEHFPDNLLPSWAITLISVNGIFVICCLTYCFAPRCRERRRNERLRRESVRPV | 1331
Q33L/E35D/M47I/N48D/A71G (protein, UniProt P33681 35-288, looked up, variant Q33L E35D M47I N48D A71G) T-lymphocyte activation …: VIHVTKEVKEVATLSCGHNVSVEELAQTRIYWLKDKKMVLTMMSGDIDIWPEYKNRTIFDITNNLSIVILGLRPSDEGTYECVVLKYEKDAFKREHLAEVTLSVKADFPTPSISDFEIPTSNIRRIICSTSGGFPEPHLSWLENGEELNAINTTVSQDPETELYAVSSKLDFNMTTNHSFMCLIKYGHLRVNQTFNWNTTKQEHFPDNLLPSWAITLISVNGIFVICCLTYCFAPRCRERRRNERLRRESVRPV | 644

# CD28 MFI at 33.3 nM lookup, item V22A/E35D/M47I/Y87N (protein, CD80 v253 ECD) VIHVTKEVKEVATLSCGHNVSAEELAQTRIYWQKDKKMVLTMMSGDINIWPEYKNRTIFDITNNLSIVILALRPSDEGTYECVVLKNEKDAFKREHLAEVTLSVKADFPTPSISDFETPTSNIRRIICSTSGGFPEPHLSWLENGEELNAINTTVSQDPETELYAVSSKLDFNMTTNHSFMCLIKYGHLRVNQTFNWNTTKQEHFPDN
15299

# CD28 MFI at 33.3 nM lookup, item E35D/T41S/M43V/M47I/L70M/A71G (protein, UniProt P33681 35-288, looked up, variant E35D T41S M43V M47I L70M A71G, Fc fusion) T-lymphocyte activation …: VIHVTKEVKEVATLSCGHNVSVEELAQTRIYWQKDKKMVLSMVSGDINIWPEYKNRTIFDITNNLSIVIMGLRPSDEGTYECVVLKYEKDAFKREHLAEVTLSVKADFPTPSISDFEIPTSNIRRIICSTSGGFPEPHLSWLENGEELNAINTTVSQDPETELYAVSSKLDFNMTTNHSFMCLIKYGHLRVNQTFNWNTTKQEHFPDNLLPSWAITLISVNGIFVICCLTYCFAPRCRERRRNERLRRESVRPV
2698

# CD28 MFI at 33.3 nM lookup, item E35D/M47V/N48I/L85Q (protein) VIHVTKEVKEVATLSCGHNVSVEELAQTRIYWQKDKKMVLTMMSGDVTIWPEYKNRTIFDITNNLSIVILALRPSDEGTYECVVQKYEKDAFKREHLAEVTLSVKAD
692

# CD28 MFI at 33.3 nM lookup, item R29H/E35D/M43V/M47I/I49V (protein, UniProt P33681 35-288, looked up, variant R29H E35D M43V M47I I49V) T-lymphocyte activation …: VIHVTKEVKEVATLSCGHNVSVEELAQTHIYWQKDKKMVLTMVSGDINVWPEYKNRTIFDITNNLSIVILALRPSDEGTYECVVLKYEKDAFKREHLAEVTLSVKADFPTPSISDFEIPTSNIRRIICSTSGGFPEPHLSWLENGEELNAINTTVSQDPETELYAVSSKLDFNMTTNHSFMCLIKYGHLRVNQTFNWNTTKQEHFPDNLLPSWAITLISVNGIFVICCLTYCFAPRCRERRRNERLRRESVRPV
336

# CD28 MFI at 33.3 nM lookup, item E35D/M47L/A71G/L85Q (protein, UniProt P33681 35-288, looked up, variant E35D M47L A71G L85Q) T-lymphocyte activation …: VIHVTKEVKEVATLSCGHNVSVEELAQTRIYWQKDKKMVLTMMSGDLNIWPEYKNRTIFDITNNLSIVILGLRPSDEGTYECVVQKYEKDAFKREHLAEVTLSVKADFPTPSISDFEIPTSNIRRIICSTSGGFPEPHLSWLENGEELNAINTTVSQDPETELYAVSSKLDFNMTTNHSFMCLIKYGHLRVNQTFNWNTTKQEHFPDNLLPSWAITLISVNGIFVICCLTYCFAPRCRERRRNERLRRESVRPV
1436
